Hey, just so you know, these numbers are from patent US6706765B2.

# TARGET OF ASSAY: human α-thrombin (Homo sapiens, UniProt P00734)
# Construct: Purified human α-thrombin; purchased Enzyme Research Laboratories (South Bend, Ind.)
# ASSAY DETAILS: In vitro inhibition of purified thrombin, p-nitroanilide substrate hydrolysis
# Type: biochemical
# PROTOCOL CONDITIONS: pH 7.5, 37° C.; read-out: Ki (nM), Thrombin
Ki strictly under 7 nM means true; at 7 nM or over means false.

[[record]]
compound = "Cc1cc(OCCCONC(=N)N)cc(OS(=O)(=O)c2ccccc2S(C)(=O)=O)c1.Cl [Example 8, Hydrochloride]"
target_of_assay = "human α-thrombin (Homo sapiens, UniProt P00734)"
category = "false"

[[record]]
compound = "Cc1cc(OCCCNNC(=N)N)cc(OS(=O)(=O)c2ccccc2Cl)c1 [Example 82, Diacetate]"
target_of_assay = "human α-thrombin (Homo sapiens, UniProt P00734)"
category = "true"

[[record]]
compound = "Cc1cc(OCCCONC(=N)N)cc(OS(=O)(=O)c2ccccc2Cl)c1"
target_of_assay = "human α-thrombin (Homo sapiens, UniProt P00734)"
category = "false"

[[record]]
compound = "COc1ccccc1S(=O)(=O)Oc1cc(C)cc(OCCCONC(=N)N)c1"
target_of_assay = "human α-thrombin (Homo sapiens, UniProt P00734)"
category = "false"

